Where these numbers come from: patent US20150119254

Molecular target: IFN-gamma (UniProt P01579)
Sequence: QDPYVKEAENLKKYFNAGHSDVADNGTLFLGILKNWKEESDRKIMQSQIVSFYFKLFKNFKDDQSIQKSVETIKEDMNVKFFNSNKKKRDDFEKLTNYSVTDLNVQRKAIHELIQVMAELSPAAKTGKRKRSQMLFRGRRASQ
Assay: SPR
Conditions: Ds at n; 150 nM IFN-gamma, 930 s
Reported binding signal values follow for various sequences
Enter your answer as a number in bound ratio; do not include the unit.

Previously resolved entries follow.
## Input Which binding signal is listed for ATCAGTCCACCTATGTGGGTTGGNTGGGGTGTATGTTNGTAGGGCTANGGAGGTGG [IF11Ds-57] ?
## Output 0.66

## Input Which binding signal is listed for ATCAGTCCACATTGGACTTAGCCCAGCAAGACAATCTACGNTATGCCAGAAGTTGG [IF02Ds-57] ?
## Output 0.03

## Input Which binding signal is listed for ATCAGTCCACTCCTTCTGTCATNGGGCAGGCGCNTTTGGTGTAGNGTTTATCTTGG [IF07aDs-57] ?
## Output 0.07

--- query ---
## Input Which binding signal is listed for ATCAGTCCACTAATCAGGAAGANGATAGGGTTTGTCTTNTGTTGCCACGCTGGGAG [IF04Ds-57] ?
## Output 0.1

###

Biological target: IFN-gamma (UniProt P01579)
Sequence: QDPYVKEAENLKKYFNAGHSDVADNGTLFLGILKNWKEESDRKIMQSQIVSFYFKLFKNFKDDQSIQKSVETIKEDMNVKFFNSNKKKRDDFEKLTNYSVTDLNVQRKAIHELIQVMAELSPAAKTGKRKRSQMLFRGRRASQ
Experiment: SPR
Conditions: Ds at n; Bound 0.36
Outcome Measure: Kd

## Input Which Kd is listed for TCGGGTCATTTANTAATGTAGGTNTGGGCTAGGCAGCTAGTGGAT [IFd1-DsDsA-45] ?
## Output > 200 nM

###

Test system: VEGF-165 (Homo sapiens), P15692-4
Sequence: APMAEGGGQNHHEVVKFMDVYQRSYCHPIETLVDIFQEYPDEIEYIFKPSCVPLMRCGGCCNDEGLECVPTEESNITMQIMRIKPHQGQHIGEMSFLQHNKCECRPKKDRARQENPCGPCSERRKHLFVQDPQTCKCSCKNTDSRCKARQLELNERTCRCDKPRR
Assay: SPR
Conditions: Ds at n; printed as uM, evidently pM; 25 C
Outcome Measure: Kd (pM)
Enter your answer as a number in pM; do not include the unit.

## Input For the record TCAGTCCACGGTAAACTGAGTCCGAAGGGGCNTGCAGTGANCCCGAATGGGTCCGG [VG20Ds-57] , what value of Kd is listed for VEGF-165 (Homo sapiens), P15692-4?
## Output 5.9

###

Tested on: VEGF-165 (Homo sapiens), P15692-4
Sequence: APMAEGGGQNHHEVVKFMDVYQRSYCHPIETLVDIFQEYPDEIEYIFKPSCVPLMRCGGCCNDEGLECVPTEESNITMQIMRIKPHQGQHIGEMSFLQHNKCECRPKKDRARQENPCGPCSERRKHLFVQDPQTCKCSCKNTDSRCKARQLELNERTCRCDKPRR
Experiment: SPR
Conditions: retention 28%
pKd: −log10 of the molar value.
Outcome Measure: pKd

## Input Which pKd is listed for TGTCTAAGTAAGGTGGGATTGGCGGGGATGTCGGA [Ds-09-1-AAA] ?
## Output < 7.00

###

Test system: VEGF-165 (Homo sapiens), P15692-4
Sequence: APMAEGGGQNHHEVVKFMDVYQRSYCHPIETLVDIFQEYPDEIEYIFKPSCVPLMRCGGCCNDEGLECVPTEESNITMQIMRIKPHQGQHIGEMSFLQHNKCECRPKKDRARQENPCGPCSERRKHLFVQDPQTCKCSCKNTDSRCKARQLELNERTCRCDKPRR
Experiment: SPR
Conditions: Ds at n; PBS + 0.005% NP-40, 25 C
Reported pKd values follow for various sequences
In textbook form, pKd equals minus log to base ten of the concentration in mol/L.

## Input Which pKd is listed for CCGGTAAACTGCGTCCGAAGGGGCNTGCAGTGANCCCGAATGGGTCCGG [VGd1-2Ds-49] ?
## Output 11.34

--- query ---
## Input Which pKd is listed for CGGTAAACTGCGTCCGAAGGGGCNTGCAGTGANCCCGAATGGGTCCG [VGd1-2Ds-47] ?
## Output 11.34

###

Test system: VEGF-165 (Homo sapiens), P15692-4
Sequence: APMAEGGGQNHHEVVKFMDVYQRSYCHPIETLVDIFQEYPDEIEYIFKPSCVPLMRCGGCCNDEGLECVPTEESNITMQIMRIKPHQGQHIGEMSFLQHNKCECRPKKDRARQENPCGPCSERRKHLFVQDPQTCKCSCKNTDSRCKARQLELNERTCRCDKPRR
Assay: SPR
Conditions: 25 C
Outcome Measure: Kd
Include the unit right after the number.

## Input Which Kd is listed for CGGTAAACTGCGTCCGAAGGGGCATGCAGTGAACCCGAATGGGTCCG [VGd1-2A-47] ?
## Output 0.2 nM

###

Reported pKd values follow for various sequences
Target: IFN-gamma (UniProt P01579)
Sequence: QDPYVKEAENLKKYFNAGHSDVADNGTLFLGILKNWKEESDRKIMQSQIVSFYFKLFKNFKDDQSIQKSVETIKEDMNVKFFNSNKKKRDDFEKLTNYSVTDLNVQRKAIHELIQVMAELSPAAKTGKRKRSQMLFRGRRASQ
Experiment: SPR
Conditions: Ds at n; 205 mM NaCl, 25 C
In textbook form, pKd equals minus log to base ten of the concentration in mol/L.

Previously resolved entries follow.
## Input Which pKd is listed for TCGGGTCGTTTANTAATGTAGGTNTGGGCTAGGCNGCTAGTGGAT [IF07bDs-45] ?
## Output 7.70

## Input Which pKd is listed for TCCACTCGGGTCATTTANTAATGTAGGTNTGGGCTAGGCNGCTAGTGGA [IFd1-3Ds-49] ?
## Output 8.80

## Input Which pKd is listed for TCGGGTCATTTAATAATGTAGGTNTGGGCTAGGCNGCTAGTGGAT [IFd1-A2Ds-45] ?
## Output 7.70

Next:
## Input Which pKd is listed for TCGGGTCATTTAATAATGTAGGTATGGGCTAGGCNGCTAGTGGAT [IFd1-AADs-45] ?
## Output 6.95

###

Test system: VEGF-165 (Homo sapiens), P15692-4
Sequence: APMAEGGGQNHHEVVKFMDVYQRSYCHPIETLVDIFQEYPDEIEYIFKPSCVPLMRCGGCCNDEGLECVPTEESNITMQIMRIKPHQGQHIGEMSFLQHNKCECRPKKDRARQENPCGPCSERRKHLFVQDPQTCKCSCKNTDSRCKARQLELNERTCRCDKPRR
Test: SPR
Settings: Ds at n; 25 C
Reported Kd values follow for various sequences
Enter your answer as a number in nM; do not include the unit.

## Input For the record GTAAACTGAGTCCGAAGGGGCNTGCAGTGANCCCGAATGGGTCCG [VG20Ds-45] , what value of Kd is listed for VEGF-165 (Homo sapiens), P15692-4?
## Output 0.022

## Input For the record ACTGCGTCCGAAGGGGCNTGCAGTGANCCCGAATGGGTCCG [VGd1-2Ds-41] , what value of Kd is listed for VEGF-165 (Homo sapiens), P15692-4?
## Output 0.069

## Input For the record TTTTTGTAAACTGCGTCCGAAGGGGCNTGCAGTGANCCCGAATGGGTCCG [VGd1-2Ds-50] , what value of Kd is listed for VEGF-165 (Homo sapiens), P15692-4?
## Output 0.017

## Input For the record GTAAACTGCGTCCGAAGGGGCATGCAGTGANCCCGAATGGGTCCG [VGd1-ADs-45] , what value of Kd is listed for VEGF-165 (Homo sapiens), P15692-4?
## Output 0.037

## Input For the record GTAAACTGCGTCCGAAGGGGCNTGCAGTGAACCCGAATGGGTCCG [VGd1-DsA-45] , what value of Kd is listed for VEGF-165 (Homo sapiens), P15692-4?
## Output 0.094

## Input For the record GTAAACTGCGTCCGAAGGGGCNTGCAGTGANCCCGA [VGd1-2Ds-36b] , what value of Kd is listed for VEGF-165 (Homo sapiens), P15692-4?
## Output 0.017

Next:
## Input For the record GTAAACTGCGTCCGAAGGGGCNTGCAGTGANCCCGAATGGGTCCG [VGd1-2Ds-45] , what value of Kd is listed for VEGF-165 (Homo sapiens), P15692-4?
## Output 0.016

## Input For the record GTAAACTGCGTCCGAAGGGGCNTGCAGTGANCCCGAATGGG [VGd1-2Ds-41b] , what value of Kd is listed for VEGF-165 (Homo sapiens), P15692-4?
## Output 0.06
